# Tested on: Vero cells
# ASSAY METHOD TEXT: Toxicity testing on Vero cells
# CONDITION DETAILS: Vero cells, 24 h post treatment
TEST READOUT: CC50 (µM)
Kindly answer with a numeric value in µM, unit omitted.

The molecule NC(=O)c1ncn([C@@H]2O[C@H](CO)[C@@H](O)[C@H]2O)c1O , tested on Vero cells, showed CC50 of 191

###

# ASSAY METHOD TEXT: Toxicity testing on Vero cells
# CONDITION DETAILS: African green monkey, Vero cells, CC50, Vero cells, 24 h post treatment
Each entry below carries its recorded CC50 at 24 h.
Kindly answer with a numeric value in µM, unit omitted.

NC(=O)c1ncn([C@@H]2O[C@H](CO)[C@@H](O)[C@H]2O)c1O: 191

Here's the next entry for you.
Entry Nc1ncnc(N[C@@H]2O[C@H](CO)[C@@H](O)[C@H]2O)c1[N+](=O)[O-] , CC50 at 24 h reported as 3.09

###

# ASSAY METHOD TEXT: in vitro
# CONDITION DETAILS: human
TEST READOUT: CC50 (µM)
Kindly answer with a numeric value in µM, unit omitted.

Nc1ncnc(N[C@@H]2O[C@H](CO)[C@@H](O)[C@H]2O)c1[N+](=O)[O-]: 108

Here's the next entry for you.
Entry NC(=O)c1ncn([C@@H]2O[C@H](CO)[C@@H](O)[C@H]2O)c1O , CC50 reported as 850

###

# Tested on: SARS-CoV-2
# ASSAY METHOD TEXT: SARS-CoV-2 genome copy number by RT-qPCR on gene E (Vero E6 cells)
# Format: cell-based
# CONDITION DETAILS: Severe acute respiratory syndrome coronavirus 2, Vero C1008; RT-qPCR on gene E, Vero E6 cells
TEST READOUT: IC50 (nM)
Kindly answer with a numeric value in nM, unit omitted.

Entry Nc1ncnc(N[C@@H]2O[C@H](CO)[C@@H](O)[C@H]2O)c1[N+](=O)[O-] , IC50 reported as 176

###

# Test system: Vero cells
# ASSAY METHOD TEXT: Toxicity testing on Vero cells
# CONDITION DETAILS: Vero cells, 24 h post treatment; listed as clitocine
TEST READOUT: CC50 (µM)
Kindly answer with a numeric value in µM, unit omitted.

Entry Nc1ncnc(N[C@@H]2O[C@H](CO)[C@@H](O)[C@H]2O)c1[N+](=O)[O-] [Compound 1] , CC50 reported as 3.09

Data provenance is patent US20230277575A1.
